Every entry's value here was drawn from paper PMC9482650.

Biological target: Inadl_9, Q8NI35
Sequence (Q8NI35 1530-1615): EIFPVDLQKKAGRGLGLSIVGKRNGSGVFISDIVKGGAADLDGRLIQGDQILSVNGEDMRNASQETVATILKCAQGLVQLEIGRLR
Test: holdup assay
Set-up: key: below the threshold = too weak to quantify, mostly under pKd 3.1 to 4
Conditions: plain residues with an end cap or a label only (N-terminal biotin on a linker: ado-ado)
READOUT_LABEL: pKd

1. TISFTQTSQF [SLC1A1, P43005] | below the threshold
2. GEDRSPPTAL [MKNK1, Q9BUB5] | below the threshold
3. PYPTADHMLA [JUP, P14923] | below the threshold
4. PPGKHLVTEV [KCNA7, Q96RP8] | below the threshold
5. ILRKSTTTTV [PRR16, Q569H4] | below the threshold
6. REEPDHSTEV [CCRL2, O00421] | 4
7. QSYPSKHDYV [CLDN18, P56856] | 4.12
8. LPAVCYDIDI [PTTG2, Q9NZH5] | below the threshold
9. NTANRRTTPV [CACNG2, Q9Y698] | below the threshold
10. SPDRDRESIV [SCN5A, Q14524] | 3.54
11. VKRNSKETVV [MARCHF3, Q86UD3] | below the threshold
12. AEASVACSLC [PTGIR, P43119] | below the threshold
13. QRPYRRGSEI [KCNJ18, B7U540] | below the threshold
14. KKMLQRRTLL [OR8G1, Q15617] | below the threshold
15. RQKEVRESKC [SCN8A, Q9UQD0] | below the threshold
16. ARSAAASNYV [CLDN4, O14493] | 3.71
17. QKAPTKEFYA [SDC2, P34741] | below the threshold
18. DRIQSCLSDA [SBF1, O95248] | below the threshold
19. AAVENKVTDL [PLXNB1, O43157] | below the threshold
20. EDGESWEYQI [TRPV6, Q9H1D0] | 3.83
21. GTGYDRKDYV [CLDN3, O15551] | 3.93
22. PSHPRLQTHV [KIRREL2, Q6UWL6] | below the threshold
23. SRSVVESDEL [MYPN, Q86TC9] | below the threshold
24. DGVNEKVSCV [HTR2A, P28223] | below the threshold
25. TNSRHGETTV [FZD2, Q14332] | 3.74
26. RDPPAEWTRV [PTPN18, Q99952] | 3.66
27. NTLNRKTTPV [CACNG8, Q8WXS5] | below the threshold
28. QSGLYESEEL [MYOT, Q9UBF9] | below the threshold
29. EDPRVEVTQF [SLC22A9, Q8IVM8] | below the threshold
